# experiment-description: Cytotoxicity against human HepG2 cells assessed as reduction in cell viability measured after 24 hrs by colorimetric assay
# Format: toxicity, cell-based
reported-endpoint: CC50 at 24 h (µM)

1) N#Cc1ccc2nc(NC(=O)c3ccc(C(F)(F)F)nc3)n(CC(F)(F)F)c2c1 1.1
2) N#Cc1ccc2nc(NC(=O)c3cc(C(F)(F)F)n[nH]3)n(CC(F)(F)F)c2c1 1.8
3) N#Cc1ccc2nc(NC(=O)c3ccnc(C(F)(F)F)c3)n(CC(F)(F)F)c2c1 2.4
4) Cn1nc(C(F)(F)F)cc1C(=O)Nc1nc2ccc(C#N)cc2n1CC(F)(F)F 1.1

Origin of measurements: ChEMBL document CHEMBL5352453
